Documented pIC50 across a set of compounds
Target: Tyrosine-protein kinase JAK2 (Homo sapiens, UniProt O60674)
Test: Inhibition of recombinant JAK2 after 1 hr
pIC50: −log10 of the molar value.
MEASURED ATTRIBUTE: pIC50

>  <CPD SMILES>
O=C(CCc1cn(Cc2ccc(Cl)cc2)c2ccccc12)Nc1ccc([N+](=O)[O-])cc1

>  <MEASURED ATTRIBUTE>
pIC50

>  <MEASURED VALUE>
3.97

$$$$
>  <CPD SMILES>
O=C(CCc1cn(Cc2ccc(Cl)cc2)c2ccccc12)Nc1ccncc1

>  <MEASURED ATTRIBUTE>
pIC50

>  <MEASURED VALUE>
3.87

$$$$

---

Biological target: Aurora kinase A (Homo sapiens)
Sequence (O14965 whole entry): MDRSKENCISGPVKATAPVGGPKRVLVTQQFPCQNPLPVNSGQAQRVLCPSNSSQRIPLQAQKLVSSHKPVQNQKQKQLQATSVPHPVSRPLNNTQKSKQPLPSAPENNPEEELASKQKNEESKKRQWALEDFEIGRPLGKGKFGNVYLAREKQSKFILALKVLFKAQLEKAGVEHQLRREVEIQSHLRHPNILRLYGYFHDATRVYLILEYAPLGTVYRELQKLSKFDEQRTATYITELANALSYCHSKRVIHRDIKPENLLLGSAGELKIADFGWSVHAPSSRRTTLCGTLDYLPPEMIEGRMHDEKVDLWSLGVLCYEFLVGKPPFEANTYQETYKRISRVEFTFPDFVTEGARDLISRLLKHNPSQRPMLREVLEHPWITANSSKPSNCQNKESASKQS
Assay: Inhibition of recombinant aurora A after 1 hr
Documented IC50 across a set of compounds
MEASURED ATTRIBUTE: IC50

>  <CPD SMILES>
O=C(CCc1cn(Cc2ccc(Cl)cc2)c2ccccc12)Nc1ccncc1

>  <MEASURED VALUE>
> 100 µM

$$$$
>  <CPD SMILES>
O=C(CCc1cn(Cc2ccc(Cl)cc2)c2ccccc12)Nc1ccc([N+](=O)[O-])cc1

>  <MEASURED VALUE>
> 100 µM

$$$$

---

Documented pIC50 across a set of compounds
Molecular target: Tyrosine-protein kinase ABL1 (Homo sapiens, UniProt P00519)
Sequence (P00519 whole entry): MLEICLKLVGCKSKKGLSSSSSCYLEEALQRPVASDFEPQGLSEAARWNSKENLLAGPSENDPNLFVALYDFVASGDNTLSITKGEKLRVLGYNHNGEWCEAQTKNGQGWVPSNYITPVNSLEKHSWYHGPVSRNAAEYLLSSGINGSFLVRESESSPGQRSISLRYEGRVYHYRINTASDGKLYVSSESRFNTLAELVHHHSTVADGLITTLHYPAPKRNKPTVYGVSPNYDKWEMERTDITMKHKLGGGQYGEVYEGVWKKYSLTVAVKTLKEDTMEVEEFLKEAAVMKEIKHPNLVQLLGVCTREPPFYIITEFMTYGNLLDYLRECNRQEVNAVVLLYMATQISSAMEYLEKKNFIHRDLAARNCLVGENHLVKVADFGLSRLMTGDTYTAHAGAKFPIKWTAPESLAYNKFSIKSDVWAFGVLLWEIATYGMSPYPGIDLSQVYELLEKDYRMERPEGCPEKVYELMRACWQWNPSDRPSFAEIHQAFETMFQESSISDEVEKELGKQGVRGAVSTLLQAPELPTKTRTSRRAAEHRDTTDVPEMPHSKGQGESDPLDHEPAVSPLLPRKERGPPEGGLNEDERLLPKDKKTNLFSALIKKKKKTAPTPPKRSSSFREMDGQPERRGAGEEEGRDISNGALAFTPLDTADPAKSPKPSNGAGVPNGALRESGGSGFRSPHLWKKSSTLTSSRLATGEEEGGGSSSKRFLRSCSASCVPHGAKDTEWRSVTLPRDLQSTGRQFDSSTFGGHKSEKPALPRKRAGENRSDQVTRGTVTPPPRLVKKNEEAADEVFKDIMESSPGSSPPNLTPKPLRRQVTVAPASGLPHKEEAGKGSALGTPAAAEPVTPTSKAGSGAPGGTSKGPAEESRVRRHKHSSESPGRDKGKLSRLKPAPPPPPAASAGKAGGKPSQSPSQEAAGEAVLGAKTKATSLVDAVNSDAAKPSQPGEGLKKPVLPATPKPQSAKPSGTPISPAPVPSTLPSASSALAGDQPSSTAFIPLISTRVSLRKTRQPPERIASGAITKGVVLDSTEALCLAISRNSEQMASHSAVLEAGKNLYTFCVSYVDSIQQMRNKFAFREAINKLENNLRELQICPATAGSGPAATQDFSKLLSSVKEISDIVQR
Assay: Inhibition of recombinant c-Abl after 1 hr
pIC50: −log10 of the molar value.

>  <CPD SMILES>
O=C(CCc1cn(Cc2ccc(Cl)cc2)c2ccccc12)Nc1ccc([N+](=O)[O-])cc1

>  <ASSAY TARGET>
Tyrosine-protein kinase ABL1 (Homo sapiens, UniProt P00519)

>  <pIC50>
< 4.00

$$$$
>  <CPD SMILES>
O=C(CCc1cn(Cc2ccc(Cl)cc2)c2ccccc12)Nc1ccncc1

>  <ASSAY TARGET>
Tyrosine-protein kinase ABL1 (Homo sapiens, UniProt P00519)

>  <pIC50>
< 4.00

$$$$

---

Biological target: Vascular endothelial growth factor receptor 2 (Homo sapiens)
Sequence (P35968 whole entry): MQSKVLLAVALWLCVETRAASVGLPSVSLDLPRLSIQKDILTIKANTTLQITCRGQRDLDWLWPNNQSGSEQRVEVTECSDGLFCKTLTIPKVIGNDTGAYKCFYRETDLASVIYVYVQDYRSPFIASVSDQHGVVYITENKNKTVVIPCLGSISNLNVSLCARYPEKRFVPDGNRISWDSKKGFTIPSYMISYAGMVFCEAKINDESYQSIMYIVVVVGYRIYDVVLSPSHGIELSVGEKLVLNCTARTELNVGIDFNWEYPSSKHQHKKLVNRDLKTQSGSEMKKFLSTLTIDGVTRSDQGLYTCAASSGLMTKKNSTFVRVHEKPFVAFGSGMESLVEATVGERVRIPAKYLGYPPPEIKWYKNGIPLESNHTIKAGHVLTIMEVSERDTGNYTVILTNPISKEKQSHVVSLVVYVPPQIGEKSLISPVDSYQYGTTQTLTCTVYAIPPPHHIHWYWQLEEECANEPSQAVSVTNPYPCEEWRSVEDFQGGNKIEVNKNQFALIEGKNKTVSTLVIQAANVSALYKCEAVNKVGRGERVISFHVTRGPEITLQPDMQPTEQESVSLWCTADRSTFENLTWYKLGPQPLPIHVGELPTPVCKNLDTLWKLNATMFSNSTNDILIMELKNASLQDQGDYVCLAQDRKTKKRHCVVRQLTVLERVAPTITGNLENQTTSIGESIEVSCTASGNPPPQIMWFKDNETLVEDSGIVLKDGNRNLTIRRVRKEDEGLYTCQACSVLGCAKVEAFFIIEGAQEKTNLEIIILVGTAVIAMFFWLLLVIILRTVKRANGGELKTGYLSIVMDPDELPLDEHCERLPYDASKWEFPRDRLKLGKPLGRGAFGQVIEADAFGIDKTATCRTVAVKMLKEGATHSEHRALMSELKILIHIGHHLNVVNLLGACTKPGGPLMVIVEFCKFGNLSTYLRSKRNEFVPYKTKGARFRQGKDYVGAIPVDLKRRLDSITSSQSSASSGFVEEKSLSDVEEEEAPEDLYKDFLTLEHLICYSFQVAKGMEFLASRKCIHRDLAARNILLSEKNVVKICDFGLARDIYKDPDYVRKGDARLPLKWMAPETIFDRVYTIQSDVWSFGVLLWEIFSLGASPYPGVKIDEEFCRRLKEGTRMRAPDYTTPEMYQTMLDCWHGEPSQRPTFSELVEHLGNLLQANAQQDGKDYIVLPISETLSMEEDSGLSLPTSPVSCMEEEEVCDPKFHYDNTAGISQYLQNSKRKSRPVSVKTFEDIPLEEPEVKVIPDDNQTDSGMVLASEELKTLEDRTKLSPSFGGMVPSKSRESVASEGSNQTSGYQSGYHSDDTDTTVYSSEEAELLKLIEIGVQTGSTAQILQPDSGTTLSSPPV
Test: Inhibition of recombinant KDR after 1 hr

>  <CPD SMILES>
O=C(CCc1cn(Cc2ccc(Cl)cc2)c2ccccc12)Nc1ccc([N+](=O)[O-])cc1

>  <IC50, µM>
33.2

$$$$
>  <CPD SMILES>
O=C(CCc1cn(Cc2ccc(Cl)cc2)c2ccccc12)Nc1ccncc1

>  <IC50, µM>
26

$$$$

---

Biological target: Serine/threonine-protein kinase pim-1 (Homo sapiens)
Sequence (P11309 whole entry): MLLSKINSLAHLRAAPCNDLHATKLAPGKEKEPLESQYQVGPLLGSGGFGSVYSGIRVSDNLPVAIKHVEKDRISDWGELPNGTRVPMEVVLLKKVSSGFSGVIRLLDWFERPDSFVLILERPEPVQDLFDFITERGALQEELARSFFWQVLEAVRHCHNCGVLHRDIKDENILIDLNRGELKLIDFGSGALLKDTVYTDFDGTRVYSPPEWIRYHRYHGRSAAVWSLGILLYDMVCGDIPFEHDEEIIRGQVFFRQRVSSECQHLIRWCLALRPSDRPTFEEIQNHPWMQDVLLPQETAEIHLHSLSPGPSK
Experiment: Inhibition of recombinant Pim1 after 1 hr
pIC50: −log10 of the molar value.
Documented pIC50 across a set of compounds
MEASURED ATTRIBUTE: pIC50

>  <CPD SMILES>
O=C(CCc1cn(Cc2ccc(Cl)cc2)c2ccccc12)Nc1ccc([N+](=O)[O-])cc1

>  <MEASURED VALUE>
< 4.00

$$$$
>  <CPD SMILES>
O=C(CCc1cn(Cc2ccc(Cl)cc2)c2ccccc12)Nc1ccncc1

>  <MEASURED VALUE>
< 4.00

$$$$

---

Documented IC50 across a set of compounds
Target: Tyrosine-protein kinase JAK3 (Homo sapiens, UniProt P52333)
Sequence (P52333 whole entry): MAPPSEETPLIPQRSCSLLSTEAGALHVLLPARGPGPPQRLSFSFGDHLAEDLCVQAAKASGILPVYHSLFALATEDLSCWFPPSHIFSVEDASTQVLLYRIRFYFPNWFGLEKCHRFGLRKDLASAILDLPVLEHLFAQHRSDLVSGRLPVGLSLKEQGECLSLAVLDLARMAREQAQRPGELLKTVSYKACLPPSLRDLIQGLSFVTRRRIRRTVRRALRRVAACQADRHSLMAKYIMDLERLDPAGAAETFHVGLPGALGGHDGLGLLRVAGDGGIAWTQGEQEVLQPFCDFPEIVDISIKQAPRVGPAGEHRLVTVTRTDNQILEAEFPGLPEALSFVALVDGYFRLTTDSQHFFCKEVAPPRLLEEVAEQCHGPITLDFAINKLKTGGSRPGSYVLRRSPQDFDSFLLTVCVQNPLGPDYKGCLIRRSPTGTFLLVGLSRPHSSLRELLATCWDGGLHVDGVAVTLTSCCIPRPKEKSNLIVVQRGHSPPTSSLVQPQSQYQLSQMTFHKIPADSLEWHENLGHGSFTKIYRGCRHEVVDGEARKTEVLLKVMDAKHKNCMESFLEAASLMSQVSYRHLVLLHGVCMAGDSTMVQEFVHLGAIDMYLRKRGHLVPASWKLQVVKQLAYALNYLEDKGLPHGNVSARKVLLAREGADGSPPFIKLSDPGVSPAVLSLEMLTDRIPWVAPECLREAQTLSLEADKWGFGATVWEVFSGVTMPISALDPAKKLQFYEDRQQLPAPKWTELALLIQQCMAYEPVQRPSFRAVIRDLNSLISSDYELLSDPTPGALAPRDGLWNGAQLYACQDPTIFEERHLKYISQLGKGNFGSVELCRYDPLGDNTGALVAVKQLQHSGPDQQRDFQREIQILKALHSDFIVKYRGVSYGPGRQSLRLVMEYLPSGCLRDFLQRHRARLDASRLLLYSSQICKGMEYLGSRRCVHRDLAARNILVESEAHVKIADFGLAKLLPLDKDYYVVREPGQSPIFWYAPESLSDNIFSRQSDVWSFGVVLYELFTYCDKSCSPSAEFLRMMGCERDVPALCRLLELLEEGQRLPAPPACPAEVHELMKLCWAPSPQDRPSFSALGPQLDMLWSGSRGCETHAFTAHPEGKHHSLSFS
Assay: Inhibition of recombinant JAK3 after 1 hr

>  <CPD SMILES>
O=C(CCc1cn(Cc2ccc(Cl)cc2)c2ccccc12)Nc1ccc([N+](=O)[O-])cc1

>  <ASSAY TARGET>
Tyrosine-protein kinase JAK3 (Homo sapiens, UniProt P52333)

>  <UNIT LABEL>
µM

>  <IC50>
34.2

$$$$
>  <CPD SMILES>
O=C(CCc1cn(Cc2ccc(Cl)cc2)c2ccccc12)Nc1ccncc1

>  <ASSAY TARGET>
Tyrosine-protein kinase JAK3 (Homo sapiens, UniProt P52333)

>  <UNIT LABEL>
µM

>  <IC50>
52

$$$$

---

Documented IC50 across a set of compounds
Molecular target: Tyrosine-protein kinase Yes (Homo sapiens)
Sequence (P07947 whole entry): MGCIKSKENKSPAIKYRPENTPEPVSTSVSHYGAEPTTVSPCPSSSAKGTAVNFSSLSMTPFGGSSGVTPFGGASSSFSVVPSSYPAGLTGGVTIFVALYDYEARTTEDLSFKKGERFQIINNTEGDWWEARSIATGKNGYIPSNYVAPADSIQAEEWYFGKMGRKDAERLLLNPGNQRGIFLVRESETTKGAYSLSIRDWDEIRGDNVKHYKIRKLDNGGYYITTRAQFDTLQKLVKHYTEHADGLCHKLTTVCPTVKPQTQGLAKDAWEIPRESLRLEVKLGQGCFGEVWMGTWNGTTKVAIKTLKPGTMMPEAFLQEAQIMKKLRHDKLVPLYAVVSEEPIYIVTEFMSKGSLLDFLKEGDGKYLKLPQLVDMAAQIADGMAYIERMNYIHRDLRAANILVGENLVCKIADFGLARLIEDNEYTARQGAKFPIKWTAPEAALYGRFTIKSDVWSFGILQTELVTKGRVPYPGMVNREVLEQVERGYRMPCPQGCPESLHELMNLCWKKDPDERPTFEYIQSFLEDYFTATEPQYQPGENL
Assay: Inhibition of recombinant YES after 1 hr
MEASURED ATTRIBUTE: IC50 (µM)

>  <CPD SMILES>
O=C(CCc1cn(Cc2ccc(Cl)cc2)c2ccccc12)Nc1ccncc1

>  <MEASURED VALUE>
30

$$$$
>  <CPD SMILES>
O=C(CCc1cn(Cc2ccc(Cl)cc2)c2ccccc12)Nc1ccc([N+](=O)[O-])cc1

>  <MEASURED VALUE>
38.1

$$$$

---

Documented IC50 across a set of compounds
Molecular target: UniProt P04629
Sequence (P04629 whole entry): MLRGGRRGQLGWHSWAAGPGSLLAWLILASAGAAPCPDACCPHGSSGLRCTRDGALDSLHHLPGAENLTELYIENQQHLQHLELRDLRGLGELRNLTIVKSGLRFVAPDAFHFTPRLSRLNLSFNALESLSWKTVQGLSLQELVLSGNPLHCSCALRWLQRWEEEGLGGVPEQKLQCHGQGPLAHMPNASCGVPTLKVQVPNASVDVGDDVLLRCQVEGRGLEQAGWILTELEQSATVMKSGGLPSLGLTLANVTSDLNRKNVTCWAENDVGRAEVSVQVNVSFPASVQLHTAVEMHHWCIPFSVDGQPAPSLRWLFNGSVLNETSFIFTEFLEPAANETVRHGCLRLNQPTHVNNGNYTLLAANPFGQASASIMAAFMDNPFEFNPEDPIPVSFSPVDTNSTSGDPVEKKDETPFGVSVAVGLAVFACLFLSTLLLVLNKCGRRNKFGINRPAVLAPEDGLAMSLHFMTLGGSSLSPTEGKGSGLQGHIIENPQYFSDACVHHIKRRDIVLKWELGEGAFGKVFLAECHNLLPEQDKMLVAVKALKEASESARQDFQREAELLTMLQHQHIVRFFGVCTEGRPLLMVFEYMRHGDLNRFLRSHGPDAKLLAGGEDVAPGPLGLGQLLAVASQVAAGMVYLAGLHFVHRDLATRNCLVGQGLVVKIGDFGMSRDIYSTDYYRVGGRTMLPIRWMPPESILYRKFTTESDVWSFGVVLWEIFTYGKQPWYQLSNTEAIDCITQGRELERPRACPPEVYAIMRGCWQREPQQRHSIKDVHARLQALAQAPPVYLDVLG
Test: Inhibition of recombinant TrkA after 1 hr
MEASURED ATTRIBUTE: IC50

>  <CPD SMILES>
O=C(CCc1cn(Cc2ccc(Cl)cc2)c2ccccc12)Nc1ccc([N+](=O)[O-])cc1

>  <MEASURED VALUE>
> 100 µM

$$$$
>  <CPD SMILES>
O=C(CCc1cn(Cc2ccc(Cl)cc2)c2ccccc12)Nc1ccncc1

>  <MEASURED VALUE>
> 100 µM

$$$$
